Quick reference for logD among some compounds
- Protocol Notes: Lipophilicity, log D of the compound at pH 7.4
- Format: physicochemical
- Experimental Setup: buffer

{"Mol": "Cc1cc(-c2c(C)nn(C)c2C)ccc1-c1nnc(N(C)Cc2ccc3ncc(C(=O)N(C)C)n3c2)o1", "logD": 3.3}
{"Mol": "Cc1cc(-c2c(C)n[nH]c2C)ccc1-c1nnc(N(C)Cc2ccc3nccn3c2)o1", "logD": 3.8}
{"Mol": "Cc1cc(-c2c(C)nn(C)c2C)cnc1-c1nnc(N(C)Cc2ccc3ncc(-c4ccc(CN(C)C)nc4)n3c2)o1", "logD": 2.5}
{"Mol": "CN(Cc1ccc2nccn2c1)c1nnc(-c2ccc(C3CC3)cc2)o1", "logD": 3.5}
{"Mol": "Cc1nn(C)c(C)c1-c1ccc(-c2nnc(N(C)Cc3ccc4nccn4c3)o2)cc1", "logD": 3.1}
{"Mol": "CN(Cc1ccc2nccn2c1)c1nnc(-c2ccccc2)o1", "logD": 2.4}
{"Mol": "Cc1noc(C)c1-c1ccc(-c2nnc(N(C)Cc3ccc4nccn4c3)o2)cc1", "logD": 3.1}
{"Mol": "Cc1cc(-c2c(C)nn(C)c2C)cnc1-c1nnc(N(C)Cc2ccc3ncc(-c4cnn(CCN(C)C)c4)n3c2)o1", "logD": 2.7}

###

- Measured On: Receptor-type tyrosine-protein kinase FLT3 (Homo sapiens)
- Sequence (P36888 whole entry): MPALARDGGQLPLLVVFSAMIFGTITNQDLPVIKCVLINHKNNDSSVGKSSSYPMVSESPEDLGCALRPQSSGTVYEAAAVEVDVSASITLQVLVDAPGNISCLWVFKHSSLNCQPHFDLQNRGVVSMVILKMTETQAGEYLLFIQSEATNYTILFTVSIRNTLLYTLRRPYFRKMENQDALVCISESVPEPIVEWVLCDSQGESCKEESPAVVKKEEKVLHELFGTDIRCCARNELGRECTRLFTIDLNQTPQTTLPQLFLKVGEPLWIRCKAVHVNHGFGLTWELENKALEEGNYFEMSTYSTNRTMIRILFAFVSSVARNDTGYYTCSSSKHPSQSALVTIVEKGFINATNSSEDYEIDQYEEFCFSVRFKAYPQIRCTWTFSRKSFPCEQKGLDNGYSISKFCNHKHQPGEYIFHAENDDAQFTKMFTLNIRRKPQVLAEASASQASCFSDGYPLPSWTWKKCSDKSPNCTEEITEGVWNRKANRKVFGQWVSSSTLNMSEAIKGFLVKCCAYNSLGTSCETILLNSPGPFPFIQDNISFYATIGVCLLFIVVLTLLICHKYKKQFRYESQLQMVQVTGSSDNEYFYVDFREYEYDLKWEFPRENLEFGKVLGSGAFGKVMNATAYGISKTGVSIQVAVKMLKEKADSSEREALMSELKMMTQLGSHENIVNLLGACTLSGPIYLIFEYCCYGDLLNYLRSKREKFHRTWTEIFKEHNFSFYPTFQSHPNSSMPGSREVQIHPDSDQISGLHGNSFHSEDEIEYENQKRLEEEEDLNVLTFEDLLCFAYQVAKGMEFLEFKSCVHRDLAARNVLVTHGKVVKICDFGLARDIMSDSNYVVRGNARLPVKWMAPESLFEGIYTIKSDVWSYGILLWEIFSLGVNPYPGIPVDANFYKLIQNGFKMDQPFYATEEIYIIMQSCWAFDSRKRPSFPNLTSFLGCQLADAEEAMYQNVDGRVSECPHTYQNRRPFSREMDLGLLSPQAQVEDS
- Protocol Notes: Inhibition of FLT3 (unknown origin) by LC-MS analysis
pIC50: −log10 of the molar value.

{"Mol": "Cc1cc(-c2c(C)nn(C)c2C)cnc1-c1nnc(N(C)Cc2ccc3nccn3c2)o1", "Measured On": "Receptor-type tyrosine-protein kinase FLT3 (Homo sapiens)", "pIC50": 4.70}
{"Mol": "Cc1nn(C)c(C)c1-c1ccc(-c2nnc(N(C)Cc3ccc4nccn4c3)o2)c(Cl)c1", "Measured On": "Receptor-type tyrosine-protein kinase FLT3 (Homo sapiens)", "pIC50": 4.70}
{"Mol": "Cc1cc(-c2c(C)n[nH]c2C)ccc1-c1nnc(N(C)Cc2ccc3nccn3c2)o1", "Measured On": "Receptor-type tyrosine-protein kinase FLT3 (Homo sapiens)", "pIC50": 4.40}

###

- Protocol Notes: Fraction unbound in C57BL/6J mouse implanted with mouse BaF3 cells transfected with AXL in at 3 to 100 mg/kg, po bid for 6 days
- Format: ADME, organism-based
- Experimental Setup: in vivo, dose 3-100 mg/kg, time 6 day
Quick reference for fraction unbound at 144 h among some molecules

{"Mol": "Cc1cc(-c2c(C)nn(C)c2C)cnc1-c1nnc(N(C)Cc2ccc3ncc(-c4ccc(CN(C)C)cc4)n3c2)o1", "fraction unbound at 144 h": 0.076}
{"Mol": "CN1CCN(Cc2ccc(-c3ccc(CO[C@H]4CCC[C@@H]4NC(=O)c4cc(-c5cnn(C)c5)cnc4N)cc3)cc2)CC1", "fraction unbound at 144 h": 0.14}

###

- Protocol Notes: Lipophilicity, log D of the compound at pH 7.4
- Type: physicochemical
- Experimental Setup: buffer

{"Mol": "Cc1cc(-c2cnn(C)c2C)ccc1-c1nnc(N(C)Cc2ccc3nccn3c2)o1", "logD": 3.4}
{"Mol": "Cc1cc(-c2c(C)nn(C)c2C)cnc1-c1nnc(N(C)Cc2ccc3ncc(-c4cccc(CN(C)C)c4)n3c2)o1", "logD": 3}
{"Mol": "Cc1cc(-c2c(C#N)nn(C)c2C)ccc1-c1nnc(N(C)Cc2ccc3nccn3c2)o1", "logD": 3.4}
{"Mol": "Cc1cc(-c2c(C)nn(C)c2C#N)ccc1-c1nnc(N(C)Cc2ccc3nccn3c2)o1", "logD": 3.8}
{"Mol": "Cc1cc(-c2c(C)nc(C)n2C)ccc1-c1nnc(N(C)Cc2ccc3nccn3c2)o1", "logD": 2.6}
{"Mol": "COc1cc(-c2c(C)nn(C)c2C)ccc1-c1nnc(N(C)Cc2ccc3nccn3c2)o1", "logD": 2.9}
{"Mol": "Cc1nn(C)c(C)c1-c1ccc(-c2nnc(N(C)Cc3ccc4nccn4c3)o2)c(C#N)c1", "logD": 2.9}
{"Mol": "COc1ccccc1-c1ccc(-c2nnc(N(C)Cc3ccc4nccn4c3)o2)cc1", "logD": 4.1}
{"Mol": "CN(Cc1ccc2nccn2c1)c1nnc(-c2ccc(-c3ccccc3Cl)cc2)o1", "logD": 4.7}
{"Mol": "CN1CCN(Cc2ccc(-c3ccc(CO[C@H]4CCC[C@@H]4NC(=O)c4cc(-c5cnn(C)c5)cnc4N)cc3)cc2)CC1", "logD": 2.8}
{"Mol": "Cc1nn(C)c(C)c1-c1ccc(-c2nnc(N(C)Cc3ccc4nccn4c3)o2)c(F)c1", "logD": 3.2}
{"Mol": "Cc1cc(-c2c(C)nn(C)c2C)ccc1-c1nnc(N(C)Cc2ccc3nccn3c2)o1", "logD": 3.7}
{"Mol": "CN(Cc1ccc2nccn2c1)c1nnc(-c2ccc(-c3ccccc3C#N)cc2)o1", "logD": 3.6}
